Hi there, I'd appreciate the recorded fraction unbound for every entry that follows.
- experimentalContext: plasma
Where a SMILES comes first, the peptide text is derived from it. [ ]: non-standard residue; d: D form. NMeY = CN[C@@H](Cc1ccc(O)cc1)C(=O)O; NMeL = CN[C@@H](CC(C)C)C(=O)O; dNMeL = CN[C@H](CC(C)C)C(=O)O; Abu = CC[C@H](N)C(=O)O

Lookup: // lookup fraction unbound for CC[C@@H]1NC(=O)[C@H]2CCCN2C(=O)[C@H](CC(C)C)NC(=O)[C@H](CC(C)C)N(C)C(=O)[C@@H](CC(C)C)N(C)C(=O)[C@H](CC(C)C)NC1=O [(4), [Abu-Leu-NMe-D-Leu-NMe-Leu-Leu-D-Pro]] (cyclo([Abu]L[dNMeL][NMeL]L[dP]))
Found: < 0.01

Lookup: // lookup fraction unbound for CC(C)C[C@@H]1NC(=O)[C@H](Cc2ccc(O)cc2)NC(=O)[C@H]2CCCN2C(=O)[C@H](CC(C)C)NC(=O)[C@H](CC(C)C)NC(=O)[C@@H](CC(C)C)NC1=O [(1), [Tyr-Leu-D-Leu-Leu-Leu-D-Pro-]] (cyclo(LL[dP]YL[dL]))
Found: 0.08

Lookup: // lookup fraction unbound for CC(C)C[C@@H]1NC(=O)[C@H](C)NC(=O)[C@H]2CCCN2C(=O)[C@H](CC(C)C)NC(=O)[C@H](CC(C)C)N(C)C(=O)[C@@H](CC(C)C)N(C)C1=O [(5), [Ala-Leu-NMe-D-Leu-NMe-Leu-Leu-D-Pro]] (cyclo(AL[dNMeL][NMeL]L[dP]))
Found: < 0.01

Lookup: // lookup fraction unbound for CC(C)C[C@@H]1NC(=O)[C@H](Cc2ccccc2)NC(=O)[C@H]2CCCN2C(=O)[C@H](CC(C)C)NC(=O)[C@H](CC(C)C)N(C)C(=O)[C@@H](CC(C)C)N(C)C1=O [(3), [Phe-Leu-NMe-D-Leu-NMe-Leu-Leu-D-Pro]] (cyclo(FL[dNMeL][NMeL]L[dP]))
Found: < 0.01

Lookup: // lookup fraction unbound for CC(C)C[C@@H]1NC(=O)[C@H](Cc2ccc(O)cc2)N(C)C(=O)[C@H]2CCCN2C(=O)[C@H](CC(C)C)NC(=O)[C@H](CC(C)C)N(C)C(=O)[C@@H](CC(C)C)N(C)C1=O [(2)] (cyclo(L[dNMeL][NMeL]L[dP][NMeY]))
Found: < 0.01

This collection of values is drawn from paper PMC5838147.
